- Tested on: U2OS
- ASSAY COMMENT: Multiplex assay against U2OS
- Type: toxicity, cell-based
- EXPERIMENTAL CONTEXT: human, 24 h, 10 µM, compound concentration 10 uM, replicate 2
READOUT LABEL: Population Tubulin-Different-Phenotype (%)
Answers are plain numbers, in %.

Request: Give its Population Tubulin-Different-Phenotype (%) value. Item: Cc1sc2c(c1C)C(c1ccc(Cl)cc1)=N[C@@H](CC(=O)NCCCCCCCCNC(=O)COc1cccc3c1C(=O)N(C1CCC(=O)NC1=O)C3=O)c1nnc(C)n1-2 (stereo partly drawn)
Result: 14

Request: Give its Population Tubulin-Different-Phenotype (%) value. Item: `CN(C)C(=O)Cn1cc(-c2ccc(-c3cncc4ccccc34)cc2)cn1`
Result: 14

Request: Give its Population Tubulin-Different-Phenotype (%) value. Item: `NCCc1cn(S(=O)(=O)c2c(Cl)nc3sccn23)c2ccccc12.O=C(O)C(=O)O`
Result: 38

Request: Give its Population Tubulin-Different-Phenotype (%) value. Item: CC(C)(C)c1cc(NC(=O)Nc2ccc(-c3cn4c(n3)sc3cc(OCCN5CCOCC5)ccc34)cc2)no1 [QUIZARTINIB]
Result: 30

Request: Give its Population Tubulin-Different-Phenotype (%) value. Item: `Cc1cccc(NC(=O)CN2CCC(c3ccccn3)CC2)c1.Cl.Cl`
Result: 10

Request: Give its Population Tubulin-Different-Phenotype (%) value. Item: `Cc1onc(-c2ccccc2Cl)c1C(=O)N(C)c1ccc(Cl)cc1`
Result: 7

Answer for every listed entry: what is its Population Tubulin-Different-Phenotype (%)? The entries follow.
1. CC(/C=C1\SC(=S)N(CCCC(=O)Nc2ccc(C(=O)O)c(O)c2)C1=O)=C\c1ccccc1
2. Cc1cnc(-c2cc(N3CCN(C(=O)CCS(C)(=O)=O)CC3)ncc2Cl)c(C)c1
3. COC[C@@H](c1ccc(C(F)(F)F)cc1)N1CCN(C2(C)CCN(C(=O)c3c(C)ncnc3C)CC2)C[C@@H]1C.O=C(O)/C=C\C(=O)O [VICRIVIROC MALEATE]
4. O=C(NCCN1CCC(n2c(=O)[nH]c3cc(Cl)ccc32)CC1)c1ccc(F)cc1 [HALOPEMIDE]
5. N#Cc1c(Oc2cccc(OS(=O)(=O)CCCC(F)(F)F)c2)cccc1C(F)(F)F
6. CCc1cc2cc(NS(=O)(=O)c3ccc(C#N)cc3)ccc2n(CC)c1=O
7. Cc1noc(-c2ccc(-c3ccc(CC(=O)O)cc3)cc2)c1NC(=O)O[C@H](C)c1ccccc1Cl

Result:
[6, 7, 7, 21, 7, 2, 4]

Answer for every listed entry: what is its Population Tubulin-Different-Phenotype (%)? The entries follow.
1. CCCCC1=NC2(CCCC2)C(=O)N1Cc1ccc(-c2ccccc2-c2nnn[nH]2)cc1 [IRBESARTAN]
2. CC(C)c1noc(N2CCC(COc3ccc(-c4ccc(S(C)(=O)=O)cc4)nc3)CC2)n1 [GSK-1292263]
3. Br.CS(=O)(=O)Nc1c(O)ccc2c1CCCC2C1=NCCN1 (stereo not drawn)
4. CN[C@@H](C)C(=O)N[C@H](C(=O)N1CCC[C@H]1C(=O)Nc1snnc1-c1ccccc1)C1CCCCC1 [GDC-0152]
5. COc1ccccc1N1CCN(C[C@@H](C(=O)NC(C)(C)C)c2ccccc2)CC1.Cl.Cl

Result:
3
2
3
81
52
